Values were extracted from PubChem BioAssay (NCI).

Tested on: HOP-62 NSCLC
Test: NCI tumour cell line growth inhibition, 48 h
Quick list: TGI per entry.
measured-metric: TGI

compound	result
COC(=O)C1CCC(=S)N1C(=O)c1ccccc1 (centres undefined)	> 100 µM
CCCCCCC[CH2][Sn]([CH2]CCCCCCC)([O]c1cccc2cccnc12)[O]c1cccc2cccnc12	3.67 µM
OCC(O)C(O)C(O)C(O)c1nc2ccc(Cl)cc2[nH]1 (centres undefined)	> 100 µM
CC(=O)Oc1cc2c(cc1OC(C)=O)OCC(c1ccc(C)cc1)C2 (centres undefined)	44.4 µM
O=C(c1ccc(Cl)cc1Cl)C1[C@H]2C(=O)N(c3ccc(Cc4ccc(N5C(=O)[C@@H]6ON(c7ccccc7)C(C(=O)c7ccc(Cl)cc7Cl)[C@@H]6C5=O)cc4)cc3)C(=O)[C@H]2ON1c1ccccc1 (some centres undefined)	> 50 µM
C=C1C(O)C2C(=C(CC)C13CC3)C(=O)C(C)(C)C2OC (centres undefined)	> 100 µM
O=C(/C=C/Sc1cc(C(F)(F)F)cc(C(F)(F)F)c1)c1ccc(Cl)cc1	32.7 µM
N/N=C(/C(=O)Nc1cccc(Cl)c1)C(C(=O)c1ccc(O)cc1O)C1OC(=O)c2ccccc21 (centres undefined)	> 100 µM
N#CC1(C#N)NC(c2cccs2)C(C#N)(C#N)NC1c1cccs1 (centres undefined)	> 100 µM
